The reported measurements were obtained from patent US20090099029A1.

# Inhibition Results (Level) per record follows
SYSTEM TESTED: kinases of Table 5 (Homo sapiens, UniProt O43318)
Sequence (O43318 whole entry): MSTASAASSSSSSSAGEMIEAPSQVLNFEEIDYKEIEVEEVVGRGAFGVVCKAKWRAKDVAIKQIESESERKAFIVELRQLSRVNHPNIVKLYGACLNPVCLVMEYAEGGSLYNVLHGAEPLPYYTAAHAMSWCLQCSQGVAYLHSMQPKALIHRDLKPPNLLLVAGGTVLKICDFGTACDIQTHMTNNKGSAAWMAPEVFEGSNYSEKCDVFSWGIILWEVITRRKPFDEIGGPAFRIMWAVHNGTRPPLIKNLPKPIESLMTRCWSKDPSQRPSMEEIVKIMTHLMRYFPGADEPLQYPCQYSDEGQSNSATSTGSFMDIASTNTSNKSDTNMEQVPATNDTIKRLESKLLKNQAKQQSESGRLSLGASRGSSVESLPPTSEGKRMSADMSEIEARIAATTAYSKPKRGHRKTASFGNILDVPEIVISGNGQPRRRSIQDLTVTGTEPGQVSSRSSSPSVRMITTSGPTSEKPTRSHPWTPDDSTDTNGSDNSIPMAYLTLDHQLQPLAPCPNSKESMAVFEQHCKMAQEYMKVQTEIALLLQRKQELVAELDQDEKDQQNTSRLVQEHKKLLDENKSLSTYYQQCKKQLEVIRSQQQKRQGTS
TEST: Further analysis of a plurality of inhibitors and a plurality of kinases (Table 5 inhibition results)
Type: biochemical
Set-up: scale not given here
TEST CONTEXT: kinase MAP3K7 (Part I, plate G9, Domain 0); inhibitor 100 uM

Problem: So what does the record say about Inhibition Results (Level) for O=S(=O)(NCCNC/C=C/c1ccc(Br)cc1)c1cccc2cnccc12 ?
Solution: 2

Problem: So what does the record say about Inhibition Results (Level) for O=c1c(-c2ccc(O)cc2)coc2cc(O)cc(O)c12 ?
Solution: 1

Problem: So what does the record say about Inhibition Results (Level) for CC(=O)c1c(O)c(C)c(O)c(Cc2c(O)c3c(c(C(=O)/C=C/c4ccccc4)c2O)OC(C)(C)C=C3)c1O ?
Solution: 2

Problem: So what does the record say about Inhibition Results (Level) for N#C/C(=C/c1ccc(O)c(O)c1)C(=O)NCc1ccccc1 ?
Solution: 0

Problem: So what does the record say about Inhibition Results (Level) for CC(C)(C)n1nc(-c2ccc(Cl)cc2)c2c(N)ncnc21 ?
Solution: 2

Problem: So what does the record say about Inhibition Results (Level) for Cn1cc(C2=C(c3cn(CCCSC(=N)N)c4ccccc34)C(=O)NC2=O)c2ccccc21 ?
Solution: 2

Problem: So what does the record say about Inhibition Results (Level) for COc1cc2ncnc(Nc3cccc(Cl)c3)c2cc1OC ?
Solution: 0

* * *

# Inhibition Results (Level) per record follows
SYSTEM TESTED: kinases of Table 5 (Homo sapiens, UniProt Q8IV63)
Sequence (Q8IV63 whole entry): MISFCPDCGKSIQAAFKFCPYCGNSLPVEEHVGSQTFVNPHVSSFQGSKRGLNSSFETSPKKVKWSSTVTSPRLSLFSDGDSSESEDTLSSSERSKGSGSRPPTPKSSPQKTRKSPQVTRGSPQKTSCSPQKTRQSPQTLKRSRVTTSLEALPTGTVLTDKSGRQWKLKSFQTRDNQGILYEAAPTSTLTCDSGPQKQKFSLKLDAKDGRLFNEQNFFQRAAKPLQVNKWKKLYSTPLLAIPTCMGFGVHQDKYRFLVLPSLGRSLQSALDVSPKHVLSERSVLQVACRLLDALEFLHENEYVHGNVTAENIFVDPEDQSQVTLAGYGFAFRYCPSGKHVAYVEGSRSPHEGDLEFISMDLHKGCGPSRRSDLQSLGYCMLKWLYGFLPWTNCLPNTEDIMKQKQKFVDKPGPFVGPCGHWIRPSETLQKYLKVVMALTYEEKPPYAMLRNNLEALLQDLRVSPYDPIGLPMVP
TEST: Further analysis of a plurality of inhibitors and a plurality of kinases (Table 5 inhibition results)
Assay type: biochemical
Design: scale not given here
TEST CONTEXT: kinase LOC51231 (Part I, plate C12, Domain 1); inhibitor 100 uM
Description: The wash solution is then discarded.
Answer with a number only.

                                   compound                             system_tested           recorded_endpoint  experimental_value
0  O=c1c(O)c(-c2ccc(O)c(O)c2)oc2cc(O)cc(O)c12 [Quercetin]  kinases of Table 5 (Homo sapiens, UniProt Q8IV63)  Inhibition Results (Level)                   0
1  CC(=O)c1c(O)c(C)c(O)c(Cc2c(O)c3c(c(C(=O)/C=C/c4ccccc4)c2O)OC(C)(C)C=C3)c1O [Rottlerin (Mallotoxin)]  kinases of Table 5 (Homo sapiens, UniProt Q8IV63)  Inhibition Results (Level)                   0
2  O=c1c(-c2ccc(O)cc2)coc2cc(O)cc(O)c12 [Genistein]  kinases of Table 5 (Homo sapiens, UniProt Q8IV63)  Inhibition Results (Level)                   2
3  N#C/C(=C/c1ccc(O)c(O)c1)C(=O)NCc1ccccc1 [AG 490]  kinases of Table 5 (Homo sapiens, UniProt Q8IV63)  Inhibition Results (Level)                   0

Problem: So what does the record say about Inhibition Results (Level) for O=S(=O)(NCCNC/C=C/c1ccc(Br)cc1)c1cccc2cnccc12 [H-89] ?
Solution: 2

* * *

SYSTEM TESTED: kinases of Table 5 (Homo sapiens)
TEST: Further analysis of a plurality of inhibitors and a plurality of kinases (Table 5 inhibition results)
Type: biochemical
Set-up: scale not given here
TEST CONTEXT: kinase STK6 (Part I, plate C6, Domain 1); inhibitor 100 uM
RECORDED ENDPOINT: Inhibition Results (Level)
Answer with a number only.

The following compounds have reported results that may help.
>>> df
                                   compound                      system_tested           recorded_endpoint  experimental_value
0  CC(C)(C)n1nc(-c2ccc(Cl)cc2)c2c(N)ncnc21 [PP2]  kinases of Table 5 (Homo sapiens)  Inhibition Results (Level)                   2
1  O=c1c(-c2ccc(O)cc2)coc2cc(O)cc(O)c12 [Genistein]  kinases of Table 5 (Homo sapiens)  Inhibition Results (Level)                   2
2  Cn1cc(C2=C(c3cn(CCCSC(=N)N)c4ccccc34)C(=O)NC2=O)c2ccccc21 [Ro-31-8220]  kinases of Table 5 (Homo sapiens)  Inhibition Results (Level)                   2
3  COc1cc2ncnc(Nc3cccc(Cl)c3)c2cc1OC [AG 1478]  kinases of Table 5 (Homo sapiens)  Inhibition Results (Level)                   0
4  O=S(=O)(NCCNC/C=C/c1ccc(Br)cc1)c1cccc2cnccc12 [H-89]  kinases of Table 5 (Homo sapiens)  Inhibition Results (Level)                   0
5  CC(=O)c1c(O)c(C)c(O)c(Cc2c(O)c3c(c(C(=O)/C=C/c4ccccc4)c2O)OC(C)(C)C=C3)c1O [Rottlerin (Mallotoxin)]  kinases of Table 5 (Homo sapiens)  Inhibition Results (Level)                   2

Problem: So what does the record say about Inhibition Results (Level) for N#C/C(=C/c1ccc(O)c(O)c1)C(=O)NCc1ccccc1 [AG 490] ?
Solution: 2

* * *

SYSTEM TESTED: kinases of Table 5 (Homo sapiens, UniProt Q8IU85)
Sequence (Q8IU85 whole entry): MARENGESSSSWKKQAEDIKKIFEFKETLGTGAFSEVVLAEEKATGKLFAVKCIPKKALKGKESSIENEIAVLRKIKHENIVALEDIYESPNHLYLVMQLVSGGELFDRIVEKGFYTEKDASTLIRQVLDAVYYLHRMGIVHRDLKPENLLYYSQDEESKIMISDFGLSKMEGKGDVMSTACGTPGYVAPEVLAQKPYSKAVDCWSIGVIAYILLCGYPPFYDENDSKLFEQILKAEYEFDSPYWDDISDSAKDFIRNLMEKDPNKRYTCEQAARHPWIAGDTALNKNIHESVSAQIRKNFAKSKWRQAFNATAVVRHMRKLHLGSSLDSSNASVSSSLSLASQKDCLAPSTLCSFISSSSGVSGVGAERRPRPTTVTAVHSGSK
TEST: Further analysis of a plurality of inhibitors and a plurality of kinases (Table 5 inhibition results)
Assay type: biochemical
Design: scale not given here
TEST CONTEXT: kinase LOC57118; inhibitor 100 uM
RECORDED ENDPOINT: Inhibition level
Answer with a number only.

The following molecules have reported results that may help.
In [3]: df
Out[3]:
                           smiles_notation                             system_tested  recorded_endpoint  experimental_value
0        COc1cc2ncnc(Nc3cccc(Cl)c3)c2cc1OC  kinases of Table 5 (Homo sapiens, UniProt Q8IU85)   Inhibition level                   0
1  CC(C)(C)n1nc(-c2ccc(Cl)cc2)c2c(N)ncnc21  kinases of Table 5 (Homo sapiens, UniProt Q8IU85)   Inhibition level                   0

Problem: So what does the record say about Inhibition level for N#C/C(=C/c1ccc(O)c(O)c1)C(=O)NCc1ccccc1 ?
Solution: 1

Problem: So what does the record say about Inhibition level for Cn1cc(C2=C(c3cn(CCCSC(=N)N)c4ccccc34)C(=O)NC2=O)c2ccccc21 ?
Solution: 0

Problem: So what does the record say about Inhibition level for O=c1c(-c2ccc(O)cc2)coc2cc(O)cc(O)c12 ?
Solution: 0

* * *

# Inhibition Results (Level) per record follows
SYSTEM TESTED: kinases of Table 5 (Homo sapiens, UniProt Q8IVH8)
Sequence (Q8IVH8 whole entry): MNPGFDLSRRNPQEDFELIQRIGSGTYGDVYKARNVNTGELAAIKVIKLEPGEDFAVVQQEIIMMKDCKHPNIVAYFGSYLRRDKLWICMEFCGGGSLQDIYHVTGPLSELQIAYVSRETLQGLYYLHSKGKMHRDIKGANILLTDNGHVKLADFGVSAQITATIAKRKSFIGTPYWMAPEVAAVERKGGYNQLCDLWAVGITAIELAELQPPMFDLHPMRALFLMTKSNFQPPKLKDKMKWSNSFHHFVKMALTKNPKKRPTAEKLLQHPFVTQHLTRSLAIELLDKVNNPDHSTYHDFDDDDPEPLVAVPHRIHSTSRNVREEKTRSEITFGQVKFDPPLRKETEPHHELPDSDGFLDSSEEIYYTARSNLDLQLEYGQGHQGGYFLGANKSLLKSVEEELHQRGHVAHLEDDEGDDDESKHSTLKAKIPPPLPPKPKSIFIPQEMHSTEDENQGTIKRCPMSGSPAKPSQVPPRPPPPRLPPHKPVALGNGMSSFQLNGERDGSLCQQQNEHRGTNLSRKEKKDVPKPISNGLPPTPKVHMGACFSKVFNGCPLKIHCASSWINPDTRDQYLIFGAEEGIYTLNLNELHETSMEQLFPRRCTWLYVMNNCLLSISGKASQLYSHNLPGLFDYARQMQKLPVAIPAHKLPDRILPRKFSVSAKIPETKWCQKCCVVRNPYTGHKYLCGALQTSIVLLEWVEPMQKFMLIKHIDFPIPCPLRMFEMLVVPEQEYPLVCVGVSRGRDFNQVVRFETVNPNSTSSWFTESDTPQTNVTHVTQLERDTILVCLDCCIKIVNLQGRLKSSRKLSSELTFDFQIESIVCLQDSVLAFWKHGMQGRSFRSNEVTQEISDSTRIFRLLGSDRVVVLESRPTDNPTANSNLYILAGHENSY
TEST: Further analysis of a plurality of inhibitors and a plurality of kinases (Table 5 inhibition results)
Assay type: biochemical
Design: scale not given here
TEST CONTEXT: kinase MAP4K3 (Part I, plate C5, Domain 1); inhibitor 100 uM
Answer with a number only.

In [3]: df
Out[3]:
                            smiles_notation  experimental_value
0  O=c1c(O)c(-c2ccc(O)c(O)c2)oc2cc(O)cc(O)c12                   1
1   CC(C)(C)n1nc(-c2ccc(Cl)cc2)c2c(N)ncnc21                   2
2      O=c1c(-c2ccc(O)cc2)coc2cc(O)cc(O)c12                   2

Problem: So what does the record say about Inhibition Results (Level) for CC(=O)c1c(O)c(C)c(O)c(Cc2c(O)c3c(c(C(=O)/C=C/c4ccccc4)c2O)OC(C)(C)C=C3)c1O ?
Solution: 1

Problem: So what does the record say about Inhibition Results (Level) for COc1cc2ncnc(Nc3cccc(Cl)c3)c2cc1OC ?
Solution: 2

Problem: So what does the record say about Inhibition Results (Level) for O=S(=O)(NCCNC/C=C/c1ccc(Br)cc1)c1cccc2cnccc12 ?
Solution: 1

Problem: So what does the record say about Inhibition Results (Level) for N#C/C(=C/c1ccc(O)c(O)c1)C(=O)NCc1ccccc1 ?
Solution: 1

Problem: So what does the record say about Inhibition Results (Level) for Cn1cc(C2=C(c3cn(CCCSC(=N)N)c4ccccc34)C(=O)NC2=O)c2ccccc21 ?
Solution: 2

* * *

SYSTEM TESTED: kinases of Table 5 (Homo sapiens, UniProt Q00536)
Sequence (Q00536 whole entry): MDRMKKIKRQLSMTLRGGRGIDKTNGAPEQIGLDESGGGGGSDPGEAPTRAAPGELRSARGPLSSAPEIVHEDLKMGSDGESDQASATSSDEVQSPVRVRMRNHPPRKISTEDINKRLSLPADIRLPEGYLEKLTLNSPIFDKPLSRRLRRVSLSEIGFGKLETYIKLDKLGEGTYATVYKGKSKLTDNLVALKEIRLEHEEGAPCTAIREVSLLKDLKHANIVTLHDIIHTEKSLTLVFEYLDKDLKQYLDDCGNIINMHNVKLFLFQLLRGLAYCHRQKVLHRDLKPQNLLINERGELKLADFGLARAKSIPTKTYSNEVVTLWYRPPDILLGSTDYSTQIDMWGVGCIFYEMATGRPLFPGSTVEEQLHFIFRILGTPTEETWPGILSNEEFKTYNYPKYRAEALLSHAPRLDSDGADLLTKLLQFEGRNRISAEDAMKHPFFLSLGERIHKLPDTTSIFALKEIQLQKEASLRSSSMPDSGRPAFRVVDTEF
TEST: Further analysis of a plurality of inhibitors and a plurality of kinases (Table 5 inhibition results)
Assay type: biochemical
Set-up: scale not given here
TEST CONTEXT: kinase PCTK1 (Part I, plate A3, Domain 0); inhibitor 100 uM
# Inhibition Results (Level) per record follows
Answer with a number only.

The following molecules have reported results that may help.
>>> print(df.to_string())
                                   molecule                             system_tested           recorded_endpoint  experimental_value
0  N#C/C(=C/c1ccc(O)c(O)c1)C(=O)NCc1ccccc1 [AG 490]  kinases of Table 5 (Homo sapiens, UniProt Q00536)  Inhibition Results (Level)                   0
1  CC(=O)c1c(O)c(C)c(O)c(Cc2c(O)c3c(c(C(=O)/C=C/c4ccccc4)c2O)OC(C)(C)C=C3)c1O [Rottlerin (Mallotoxin)]  kinases of Table 5 (Homo sapiens, UniProt Q00536)  Inhibition Results (Level)                   0
2  CC(C)(C)n1nc(-c2ccc(Cl)cc2)c2c(N)ncnc21 [PP2]  kinases of Table 5 (Homo sapiens, UniProt Q00536)  Inhibition Results (Level)                   1
3  Cn1cc(C2=C(c3cn(CCCSC(=N)N)c4ccccc34)C(=O)NC2=O)c2ccccc21 [Ro-31-8220]  kinases of Table 5 (Homo sapiens, UniProt Q00536)  Inhibition Results (Level)                   0
4  O=S(=O)(NCCNC/C=C/c1ccc(Br)cc1)c1cccc2cnccc12 [H-89]  kinases of Table 5 (Homo sapiens, UniProt Q00536)  Inhibition Results (Level)                   2
5  COc1cc2ncnc(Nc3cccc(Cl)c3)c2cc1OC [AG 1478]  kinases of Table 5 (Homo sapiens, UniProt Q00536)  Inhibition Results (Level)                   0

Problem: Form field - read-out: Inhibition Results (Level); system: kinases of Table 5 (Homo sapiens, UniProt Q00536); submitted item: O=c1c(O)c(-c2ccc(O)c(O)c2)oc2cc(O)cc(O)c12 [Quercetin]
Solution: 0

Problem: Form field - read-out: Inhibition Results (Level); system: kinases of Table 5 (Homo sapiens, UniProt Q00536); submitted item: O=c1c(-c2ccc(O)cc2)coc2cc(O)cc(O)c12 [Genistein]
Solution: 1
